# Tested on: CT26
# Measurement description: Antiproliferative activity against mouse CT26 cells after 48 hrs by CCK-8 assay
# Format: functional, cell-based
# Details: CT26, 48 h
A collection of molecules and their measured pIC50
pIC50 (log units): -log10 of the concentration in mol/L.

| Chemical smiles | pIC50 |
| --- | --- |
| Nc1ccccc1NC(=O)c1cccc(C(=O)NCCNc2nonc2/C(=N/O)Nc2ccc(F)c(Br)c2)c1 | 4.59 |

Now consider the entry below.
In plain terms, Nc1ccccc1NC(=O)c1ccc(C(=O)NCCNc2nonc2/C(=N/O)Nc2ccc(F)c(Br)c2)cc1 has a documented pIC50 of 4.22
